protocol text: Pharmacokinetic experiment on SD rats (iv and intragastric)
Type: in vivo
measurement conditions: Sprague-Dawley, rat, plasma, iv, 1.00 mg/kg
recorded metric: AUC(0-inf) (ng·h/mL)

>>> readout_value("CN(C)c1cc2nn([C@H]3CC[C@H](CN4C[C@@H](F)[C@H](n5cc6cc(C7CCC(=O)NC7=O)ccc6n5)C4)CC3)cc2cc1NC(=O)c1cnn2cccnc12 (stereo partly drawn)")
2440
>>> readout_value("CN(C)c1cc2nn([C@H]3CC[C@H](CN4C[C@@H](F)[C@H](n5cc6cc(C7CCC(=O)NC7=O)c(F)cc6n5)C4)CC3)cc2cc1NC(=O)c1cnn2cccnc12 (stereo partly drawn)")
2980
>>> readout_value("CN(C)c1cc2nn([C@H]3CC[C@H](CN4C[C@@H](n5cc6cc(C7CCC(=O)NC7=O)c(F)cc6n5)[C@@H](F)C4)CC3)cc2cc1NC(=O)c1cnn2cccnc12 (stereo partly drawn)")
4220

* * *

target under test: IRAK4 (Homo sapiens)
Construct: Effect of the Compounds on IRAK4 Protein Degradation in THP1 Cells; endogenous in cells; host or cells: THP-1 cells
Sequence (Q9NWZ3 whole entry): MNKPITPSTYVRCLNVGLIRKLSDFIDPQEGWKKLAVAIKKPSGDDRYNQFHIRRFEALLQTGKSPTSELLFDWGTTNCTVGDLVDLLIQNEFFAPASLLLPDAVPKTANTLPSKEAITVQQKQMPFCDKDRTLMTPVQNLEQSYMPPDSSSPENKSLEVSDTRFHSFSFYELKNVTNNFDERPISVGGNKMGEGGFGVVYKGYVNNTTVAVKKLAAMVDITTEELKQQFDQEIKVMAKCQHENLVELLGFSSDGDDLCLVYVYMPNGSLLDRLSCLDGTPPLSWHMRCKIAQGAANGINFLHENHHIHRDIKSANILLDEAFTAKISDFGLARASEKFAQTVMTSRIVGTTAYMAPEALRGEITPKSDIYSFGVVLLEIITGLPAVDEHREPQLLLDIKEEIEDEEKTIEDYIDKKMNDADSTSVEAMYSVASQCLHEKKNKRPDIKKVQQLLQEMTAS
protocol text: IRAK4 protein degradation in THP1 cells (Western blot)
Type: cell-based
measurement conditions: THP-1 cells, 24 h
Method: THP-1 cells were seeded into a 96-well cell culture plate, with 2×10^5 cells and 90 μL of culture medium per well. The cell culture plate was cultured in an incubator with 5% CO2 at 37° C. overnight. […] Protein quantification was performed using the BCA protein quantification kit, followed by the preparation of Western blot samples. […]
recorded metric: DC50 (nM)

>>> readout_value("CN(C)c1cc2nn([C@H]3CC[C@H](CN4CC[C@H](F)[C@@H](n5cc6ccc(N7CCC(=O)NC7=O)cc6n5)C4)CC3)cc2cc1NC(=O)c1cnn2cccnc12")
1.74
>>> readout_value("CN(C)c1cc2nn([C@H]3CC[C@H](CN4C[C@H](F)[C@@H](n5cc6cc(C7CCC(=O)NC7=O)c(F)cc6n5)C4)CC3)cc2cc1NC(=O)c1cnn2cccnc12 (stereo partly drawn)")
2.38

* * *

Measured half-life at 1 µM, listed per entry.
protocol text: Metabolic stability in human liver microsome
Type: in vitro ADME
measurement conditions: liver microsomes, NADPH, 60 min, read-out: Human liver microsome (t1/2, min)
recorded metric: half-life at 1 µM (min)

>>> readout_value("CN(C)c1cc2nn([C@H]3CC[C@H](CN4CC[C@@H](n5cc6cc(C7CCC(=O)NC7=O)c(F)cc6n5)[C@@H](F)C4)CC3)cc2cc1NC(=O)c1cnn2cccnc12 (some centres unmarked) [TM-135]")
65
>>> readout_value("CN(C)c1cc2nn([C@H]3CC[C@H](CN4CC[C@H](n5cc6cc(C7CCC(=O)NC7=O)c(F)cc6n5)[C@@H](F)C4)CC3)cc2cc1NC(=O)c1cnn2cccnc12 (some centres unmarked) [TM-134]")
114
>>> readout_value("CN(C)c1cc2nn([C@H]3CC[C@H](CN4CC[C@H](n5cc6cc(F)c(C7CCC(=O)NC7=O)cc6n5)[C@@H](F)C4)CC3)cc2cc1NC(=O)c1cnn2cccnc12 (some centres unmarked) [TM-138]")
91
>>> readout_value("CN(C)c1cc2nn([C@H]3CC[C@H](CN4CC[C@@H](n5cc6cc(F)c(C7CCC(=O)NC7=O)cc6n5)[C@H](F)C4)CC3)cc2cc1NC(=O)c1cnn2cccnc12 (some centres unmarked) [TM-137]")
92.3
>>> readout_value("CN(C)c1cc2nn([C@H]3CC[C@H](CN4C[C@@H](F)[C@H](n5cc6cc(C7CCC(=O)NC7=O)c(F)cc6n5)C4)CC3)cc2cc1NC(=O)c1cnn2cccnc12 (some centres unmarked) [TM-245]")
87.4
